Measured TGI accompanies every entry in the list below.
- Tested on: OVCAR-8 ovarian
- PROTOCOL_NOTES: NCI tumour cell line growth inhibition, 48 h

{"COMPOUND": "CC1OC(=O)c2ccccc2NC1=O (stereo unspecified)", "TGI": "> 100 µM"}

Ask: Kindly state the measured TGI obtained for `COc1ccc(/C=C(\C#N)c2cc3ccccc3n2C)cc1` with OVCAR-8 ovarian.
Reply: > 100 µM

Ask: Kindly state the measured TGI obtained for `N#Cc1c(C#N)c(SSc2c(C#N)c(C#N)c(N)n2-c2ccccc2)n(-c2ccccc2)c1N` with OVCAR-8 ovarian.
Reply: > 100 µM

Ask: Kindly state the measured TGI obtained for `CCN(CC)CCCNC(=O)Cc1ccccc1Nc1c(Cl)cccc1Cl` with OVCAR-8 ovarian.
Reply: 31.9 µM

Ask: Kindly state the measured TGI obtained for Fc1ccccc1C1CC(C(c2ccccc2)c2ccccc2)=Nc2ccccc2S1 (stereo unspecified) with OVCAR-8 ovarian.
Reply: 48.5 µM

Ask: Kindly state the measured TGI obtained for `COc1ccc2c3c(c(OCCCN(C)C)nc2c1)-c1ccc(Cl)cc1C3=O` with OVCAR-8 ovarian.
Reply: 34.6 µM

Ask: Kindly state the measured TGI obtained for CN(Cc1cnc2nc(N)nc(N)c2n1)c1ccc(C(=O)NC(CCC(=O)O)C(=O)O)cc1 (stereo unspecified) with OVCAR-8 ovarian.
Reply: > 100 µM

Ask: Kindly state the measured TGI obtained for CN1OC(=O)N(C)C1c1ccccc1 (stereo unspecified) with OVCAR-8 ovarian.
Reply: > 100 µM
